experiment: Cmax in SCID mouse at 25 mg/kg, po by LCMS/MS method; assay type: ADME, organism-based; design: dose 25 mg/kg, route oral; conditions: in vivo
MEASUREMENT TYPE: Cmax (ng/mL)

Use the examples below as a reference point.
COMPOUND	Cmax (ng/mL)
O=C1Nc2ccccc2[C@]12C[C@H]2c1ccc2c(/C=C/c3cccnc3)n[nH]c2c1 (relative stereo)	37
CN1CCN(Cc2ccc(/C=C/c3n[nH]c4cc([C@@H]5C[C@@]56C(=O)Nc5ccccc56)ccc34)cc2)CC1 (relative stereo)	190
COc1ccc2c(c1)[C@]1(C[C@H]1c1ccc3c(/C=C/c4ccc(CN5CCOCC5)cc4)n[nH]c3c1)C(=O)N2 (relative stereo)	1700
COc1ccc2c(c1)[C@]1(C[C@H]1c1ccc3c(/C=C/c4ccc(CN5CCCCC5)nc4)n[nH]c3c1)C(=O)N2 (relative stereo)	290
COc1ccc2c(c1)[C@]1(C[C@H]1c1ccc3c(/C=C/c4ccc(CN(C)C)cc4)n[nH]c3c1)C(=O)N2 (relative stereo)	350

1: O=C1Nc2ccccc2[C@]12C[C@H]2c1ccc2c(/C=C/c3ccncc3)n[nH]c2c1 (relative stereo)
2: CN(C)Cc1ccc(/C=C/c2n[nH]c3cc([C@@H]4C[C@@]45C(=O)Nc4ccccc45)ccc23)cc1 (relative stereo)
3: O=C1Nc2ccccc2[C@]12C[C@H]2c1ccc2c(/C=C/c3ccc(CN4CCOCC4)cc3)n[nH]c2c1 (relative stereo)
4: O=C1Nc2ccc(F)cc2[C@]12C[C@H]2c1ccc2c(/C=C/c3ccc(CN4CCOCC4)cc3)n[nH]c2c1
Exercise: # rank by Cmax, ascending (min first) Would you mind listing the labels in the order requested?
Key: 2, 1, 3, 4
(2: 290 ng/mL, 1: 470 ng/mL, 3: 1800 ng/mL, 4: 3700 ng/mL)

---

As shown below, each of these molecules has a reported GI50 value.
tested on: MDA-MB-468; assay: Cytotoxicity against human MDA-MB-468 cells after 5 days by SRB assay; assay type: functional; details: MDA-MB-468, 120 h
Note: unit nM is implicit; provide only the numeric part.

Use the examples below as a reference point.
MOLECULE	EXPERIMENTAL VALUE
O=C1Nc2ccccc2[C@]12C[C@H]2c1ccc2c(/C=C/c3ccc(CN4CCCCC4)nc3)n[nH]c2c1 (relative stereo)	0.4
Cc1ccc2c(c1)[C@]1(C[C@H]1c1ccc3c(/C=C/c4ccc(CN(C)C)cc4)n[nH]c3c1)C(=O)N2 (relative stereo)	0.05

Field: next molecule
Exercise: Data request, read-out GI50, for O=C1Nc2ccc(F)cc2[C@]12C[C@H]2c1ccc2c(/C=C/c3ccc(CN4CCOCC4)cc3)n[nH]c2c1
Key: 20

---

biological target: Cytochrome P450 1A2 (Homo sapiens, UniProt P05177)
Sequence (P05177 whole entry): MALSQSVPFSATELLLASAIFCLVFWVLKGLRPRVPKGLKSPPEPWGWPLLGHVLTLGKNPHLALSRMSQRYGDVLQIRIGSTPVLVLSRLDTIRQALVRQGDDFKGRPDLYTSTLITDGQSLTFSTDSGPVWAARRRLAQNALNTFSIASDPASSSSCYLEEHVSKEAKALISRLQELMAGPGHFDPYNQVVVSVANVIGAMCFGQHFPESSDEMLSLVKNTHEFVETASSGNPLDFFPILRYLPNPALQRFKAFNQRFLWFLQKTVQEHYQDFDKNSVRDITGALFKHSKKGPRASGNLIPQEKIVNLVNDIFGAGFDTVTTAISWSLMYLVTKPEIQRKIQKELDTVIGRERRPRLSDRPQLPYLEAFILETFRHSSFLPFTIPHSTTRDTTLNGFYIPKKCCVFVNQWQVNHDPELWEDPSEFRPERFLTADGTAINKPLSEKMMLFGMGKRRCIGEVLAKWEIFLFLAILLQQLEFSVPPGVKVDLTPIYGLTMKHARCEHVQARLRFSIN
pIC50: −log10 of the molar value.
MEASUREMENT TYPE: pIC50

Use the examples below as a reference point.
MOLECULE	pIC50
COc1ccc2c(c1)[C@]1(C[C@H]1c1ccc3c(/C=C/c4ccc(CN5CCOCC5)cc4)n[nH]c3c1)C(=O)N2 (relative stereo)	< 5.00
CN1CCN(Cc2ccc(/C=C/c3n[nH]c4cc([C@@H]5C[C@@]56C(=O)Nc5ccccc56)ccc34)cc2)CC1 (relative stereo)	< 6.00
O=C1Nc2ccccc2[C@]12C[C@H]2c1ccc2c(/C=C/c3ccncc3)n[nH]c2c1 (relative stereo)	5.85

Field: next molecule
Exercise: Data request, read-out pIC50, for O=C1Nc2ccc(F)cc2[C@]12C[C@H]2c1ccc2c(/C=C/c3ccc(CN4CCOCC4)cc3)n[nH]c2c1
Key: < 5.00
